Test system: Trypanosoma brucei brucei (blood stream trypomastigotes)
Run Description: Drug susceptibility resazurin assay, T. b. brucei
Cond: 72 h, read-out: IC50 T. b. brucei
pIC50: −log10 of the molar value.
Hi, to clarify the labels: criterion met covers pIC50 from 6 upward, criterion not met covers anything below 6.

Consider the worked cases shown below.
| Compound | Category Label |
| --- | --- |
| O=C(/C=C/c1ccc2c(c1)OCO2)c1ccc(NC(=O)c2cn(-c3ccccc3)nc2-c2ccccc2)cc1 [Compound 9n] | criterion not met |
| O=C(/C=C/c1ccccc1Cl)c1ccc(NC(=O)c2cn(-c3ccccc3)nc2-c2ccccc2)cc1 [Compound 9f] | criterion met |

Check this compound for pIC50 at or above 6: Cc1ccccc1/C=C/C(=O)c1ccc(NC(=O)c2cn(-c3ccccc3)nc2-c2ccccc2)cc1 [Compound 9b]
criterion met

Check this compound for pIC50 at or above 6: Cc1ccc(C(=O)Nc2ccc(S(=O)(=O)O)c3cc(S(=O)(=O)O)cc(S(=O)(=O)O)c23)cc1NC(=O)c1cccc(NC(=O)Nc2cccc(C(=O)Nc3cc(C(=O)Nc4ccc(S(=O)(=O)O)c5cc(S(=O)(=O)O)cc(S(=O)(=O)O)c45)ccc3C)c2)c1 [Suramine, reference compound]
criterion met

Check this compound for pIC50 at or above 6: O=C(/C=C/c1cccc(F)c1)c1ccc(NC(=O)c2cn(-c3ccccc3)nc2-c2ccccc2)cc1 [Compound 9h]
criterion not met

Check this compound for pIC50 at or above 6: COc1ccc(/C=C/C(=O)c2ccc(NC(=O)c3cn(-c4ccccc4)nc3-c3ccccc3)cc2)cc1 [Compound 9d]
criterion not met
